system: S. cerevisiae SKN7-toxicity growth rescue, plate reader; assay: Yeast SKN7 toxicity growth rescue counterscreen, Saccharomyces cerevisiae, plate reader, dose confirmatory (AID 624258);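 further: growth read after three days of incubation at 30 °C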
Calls of active or inactive are those of the source. How the calls were made is not given here.
Select the correct class. Options are class 1 for active, class 0 for inactive and nothing else.

Observe how each entry below is paired with its result.
{"molecule": "CC1(C(=O)OCC(=O)Nc2ccc3ccccc3c2)CC1(Cl)Cl (configuration not stated)", "classification": "class 1"}
{"molecule": "Cc1ccc2oc(-c3ccccc3)c(C(=O)O)c(=O)c2c1", "classification": "class 1"}
{"molecule": "O=[N+]([O-])c1ccc(N=Nc2ncc[nH]2)cc1", "classification": "class 1"}
{"molecule": "Cc1cccc(N2CCN(C(=O)c3c(-c4ccccc4)noc3C)CC2)c1C", "classification": "class 1"}
{"molecule": "O=c1c(-c2cccc3ccccc23)[n+]([O-])c2ccccc2n1O", "classification": "class 1"}

Query :: Recorded test call requested for `O=C(N/N=C/c1c(O)n(Cc2ccccc2)c(=O)c2ccccc12)c1cccnc1`
Result :: class 1

Query :: Recorded test call requested for COc1cc2c(cc1OC)C(C)N(C(=O)c1cc3c(=O)oc4ccc(C)cc4c3s1)CC2 (configuration not stated)
Result :: class 0

Query :: Recorded test call requested for `COc1cccc(/C=N/Nc2ncc(C(F)(F)F)cc2Cl)c1O`
Result :: class 1

Query :: Recorded test call requested for `O=C(O)c1ccc(N/N=C/C=C/c2ccccc2)cc1`
Result :: class 1

Query :: Recorded test call requested for C[C@]12CCC3C(CC[C@H]4C[C@@H](O)CC[C@]34C)C1CC[C@@H]2OC(=O)[C@H](N)CCCCN (some centres not stated)
Result :: class 1

Query :: Recorded test call requested for `O=C(NCCN1CCN(c2cccc(Cl)c2)CC1)c1ccc(CSc2nc3ccncc3[nH]2)cc1`
Result :: class 1

====

Recorded AC40 by entry
system: S. cerevisiae SKN7-toxicity growth rescue, plate reader; assay: Yeast SKN7 toxicity growth rescue counterscreen, Saccharomyces cerevisiae, plate reader, dose confirmatory (AID 624258);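 further: growth read after three days of incubation at 30 °C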

{"compound": "Clc1cccc(N/N=C(\\Cc2nc3ccccc3[nH]2)c2ccccc2)c1", "measured result": "2610 nM"}
{"compound": "COc1ccc2c(c1)c1nnc(SC)nc1n2C", "measured result": "2000 nM"}
{"compound": "COc1ccccc1C1CCN(c2cc(O)ccc2[N+](=O)[O-])CC1", "measured result": "2830 nM"}

Next:
Query :: Give AC40 for the following compound: CC(C)=CCc1c(O)cc(O)c2c1OC(c1ccc(O)cc1)CC2=O (centres undefined)
Result :: 12700 nM

====

Recorded AC40 by entry
tested on: S. cerevisiae SKN7-toxicity growth rescue, plate reader; test: Yeast SKN7 toxicity growth rescue counterscreen, Saccharomyces cerevisiae, plate reader, dose confirmatory (AID 624258);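 further: growth read after three days of incubation at 30 °C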

Sample answers from the record:
{"molecule": "CC(=O)C1CCC2C3CC=C4CC(SC(=N)N)CCC4(C)C3CCC12C (stereo unspecified)", "parameter measured": "AC40", "measured result": "1.66 µM"}
{"molecule": "CCOC(=O)c1cccc2c1-c1ccccc1/C2=N/O", "parameter measured": "AC40", "measured result": "1.91 µM"}
{"molecule": "Cc1nnc(N/N=C/c2cccc(OCc3ccc(Cl)c(Cl)c3)c2)n1N", "parameter measured": "AC40", "measured result": "3.28 µM"}

Query :: Give AC40 for the following molecule: `O=C(NNC(=O)c1cc(Cl)ccc1O)c1cccc(S(=O)(=O)N2CCOCC2)c1`
Result :: 3.31 µM

Query :: Give AC40 for the following molecule: `Cc1ccc(CN=Cc2[nH]c3ccc(Br)c(Cl)c3c2O)cc1`
Result :: 9.03 µM

Query :: Give AC40 for the following molecule: `Cc1nc(Sc2ccc(Cl)cc2)c(C#N)c(C)c1[N+](=O)[O-]`
Result :: 0.937 µM

Query :: Give AC40 for the following molecule: `Cc1ccc(C)c(C(=O)O/N=C(\N)c2ccc(Br)cc2)c1`
Result :: 3.86 µM

Query :: Give AC40 for the following molecule: `Cc1ccc(C(=O)Sc2cccccc2=O)cc1`
Result :: 0.322 µM

====

Recorded AC40 by entry
tested on: S. cerevisiae SKN7-toxicity growth rescue, plate reader; assay: Yeast SKN7 toxicity growth rescue counterscreen, Saccharomyces cerevisiae, plate reader, dose confirmatory (AID 624258);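 further: growth read after three days of incubation at 30 °C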

Sample answers from the record:
{"molecule": "Cc1ccc(C2(c3ccc(C)cc3)CC2C(=O)Nc2ccc([N+](=O)[O-])cc2O)cc1 (stereo not drawn)", "AC40": "6.78 µM"}
{"molecule": "O=C1c2ccccc2NC(c2ccc(-c3ccc(C(F)(F)F)cc3)o2)N1O (stereo not drawn)", "AC40": "1.71 µM"}
{"molecule": "Cc1ccc(SCCNC(=S)Nc2ccc(C)c(C)c2)cc1", "AC40": "14.2 µM"}
{"molecule": "Cc1cccc(C(=O)NC(=S)NNC(=O)Cc2ccccc2)c1", "AC40": "1.22 µM"}
{"molecule": "CC(C)c1cc(-c2cc(C(=O)NCc3ccccc3)on2)nc(NCC2CC2)n1", "AC40": "7.9 µM"}

Query :: Give AC40 for the following molecule: `Cc1nn(-c2nnc(NC3CCCCC3)nn2)c(C)c1Br`
Result :: 6.48 µM

Query :: Give AC40 for the following molecule: `COc1cccc2c1C(=O)c1c(O)c3c(c(O)c1C2=O)C[C@@](O)(C(=O)CO)C[C@@H]3O[C@H]1C[C@H](N)[C@H](O)[C@H](C)O1`
Result :: 6.21 µM

Query :: Give AC40 for the following molecule: `Cc1ccc(-c2nn(C(C)(C)C)c3ncnc(N)c23)cc1`
Result :: 9.29 µM

Query :: Give AC40 for the following molecule: `O=C(O)c1ccc(N/N=C/C2=C(N3CCOCC3)C(=C\c3ccccc3)/CC2)cc1`
Result :: 5.01 µM

Query :: Give AC40 for the following molecule: `CSC1=NC(=O)/C(=C/c2ccc(SC)cc2)S1`
Result :: 2.61 µM

====

Recorded AC40 by entry
test system: S. cerevisiae SKN7-toxicity growth rescue, plate reader; test: Yeast SKN7 toxicity growth rescue counterscreen, Saccharomyces cerevisiae, plate reader, dose confirmatory (AID 624258);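 further: growth read after three days of incubation at 30 °C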

Sample answers from the record:
{"molecule": "Cc1ccccc1OCC(O)Cn1c2ccccc2c2ccccc21 (stereo not drawn)", "AC40": "3.61 µM"}
{"molecule": "COc1ccc(-c2cc(C(=O)NNC(=S)NC(=O)c3c(-c4ccccc4)noc3C)[nH]n2)cc1", "AC40": "2.31 µM"}
{"molecule": "COc1cccc(NC=C2C(=O)OC3(CCCCC3)OC2=O)c1", "AC40": "5.08 µM"}
{"molecule": "Cc1cccc(C)c1NS(=O)(=O)c1ccc(-c2cnc(C3CC3)o2)cc1", "AC40": "7.85 µM"}
{"molecule": "O=Nc1c(O)n(Cc2ccc(Cl)c(Cl)c2)c2ccccc12", "AC40": "8.74 µM"}

Query :: Give AC40 for the following molecule: `O=[N+]([O-])c1ccc(O)c(/C=N/Nc2ccccn2)c1`
Result :: 1.42 µM

Query :: Give AC40 for the following molecule: `COc1ccc(N(C(=O)c2ccncc2)S(=O)(=O)c2ccc(F)cc2)cc1`
Result :: 3.67 µM

Query :: Give AC40 for the following molecule: `COC1=CC(=O)c2c(ccc3ncnc(N)c23)C1=O`
Result :: 10.1 µM
